src = patent US20210380699A1

Test system: Human PD-L1 expressed on cells (human, UniProt Q9NZQ7 19-290)
Sequence (Q9NZQ7 19-290 limits assumed): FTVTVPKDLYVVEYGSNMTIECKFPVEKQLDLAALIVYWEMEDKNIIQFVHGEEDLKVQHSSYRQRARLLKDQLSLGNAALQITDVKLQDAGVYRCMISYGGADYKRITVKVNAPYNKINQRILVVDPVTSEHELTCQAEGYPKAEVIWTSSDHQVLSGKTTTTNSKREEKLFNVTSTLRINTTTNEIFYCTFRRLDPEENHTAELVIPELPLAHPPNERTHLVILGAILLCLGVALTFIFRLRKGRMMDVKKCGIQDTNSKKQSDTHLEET
Method summary: cell-based or functional assay
Parameter measured: EC50, IL-2 induction, murine T cell hybridoma assay, n = 1 (nM)
Report the value in nM with no unit label.

1) 414B06 (antibody, V domains shown, also called 414606) VH: EVHLVESGGGLVQPGGSLRLSCAASGFTFSSYWMNWVRQAPGKGLEWVANIKQDGSEKYYVDSVKGRFTVSRDNAKNSLYLQMNSLRAEDTAVYYCARVRQWSDYSDYWGQGTPVTVSS VL: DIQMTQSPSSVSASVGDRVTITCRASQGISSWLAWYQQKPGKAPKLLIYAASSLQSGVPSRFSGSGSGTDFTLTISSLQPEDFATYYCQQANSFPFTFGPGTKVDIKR    0.59
2) 84G09 (human IgG1) (antibody, V domains shown, also called clone 84609; lead antibody) VH: EVQLVESGGGLVQPGRSLRLSCAASGFTFDDYAMHWVRQTPGKGLEWVSGISWKSNIIGYADSVKGRFTISRDNAKNSLYLQMNSLRAEDTALYYCARDITGSGSYGWFDPWGQGTLVTVSS VL: DIQMTQSPSSLSASVGDRVTITCRASQSISSYLNWYQQKPGKAPKPLIYVASSLQSGVPSSFSGSGSGTDFTLTISSLQPEDFATYYCQQSYSNPITFGQGTRLEIKR    0.24
3) 416E01 (human IgG1) (antibody, V domains shown) VH: EVQLAESGGGLVQPGGSLRLSCAASGFTFSNYAMSWVRQTPGKGLEWVSAISFSGGTTYYADSVKGRFTISRDNSKNTLYLHMNSLRADDTAVYYCAKDEAPAGATFFDSWGQGTLVTVSS VL: DIQMTQSPSSVSASVGDRVTITCRASQGIRRWLAWYQQKPGKAPKLLISGASSLQSGVPSRFSGSGSGTDFTLIITSLQPEDFATYYCQQANSFPITFGQGTRLEIKR    0.19

Kindly consider the entry below.
Exam item: Please look up its EC50, IL-2 induction, murine T cell hybridoma assay, n = 1: 413G05 (antibody, human IgG1, kappa, V domains shown) VH: QVQLVESGGGLVKPGGSLRLSCAASGFTFSDYYMSWIRQVPGKGLEWVSYISTSGSTIYYADSVKGRFTISRDNAKNSLYLQMNSLRAEDAAVYHCARGITGTNFYHYGLGVWGQGTTVTVSS VL: DIQMTQSPSSVSASVGDRVTITCRASQGINSWLAWYQQKPGKAPKLLIYAASTLQSGVPSRFSGSGSGADFTLTISSLQPEDFATYYCQQVNSFPLTFGGGTKVEIKR
Marked response: 0.29
